system-under-test: T1, L-selectin (CD62L) on J.RT3-T3.5 cells (Homo sapiens, UniProt P14151 P14151:39-372)
T1 sequence: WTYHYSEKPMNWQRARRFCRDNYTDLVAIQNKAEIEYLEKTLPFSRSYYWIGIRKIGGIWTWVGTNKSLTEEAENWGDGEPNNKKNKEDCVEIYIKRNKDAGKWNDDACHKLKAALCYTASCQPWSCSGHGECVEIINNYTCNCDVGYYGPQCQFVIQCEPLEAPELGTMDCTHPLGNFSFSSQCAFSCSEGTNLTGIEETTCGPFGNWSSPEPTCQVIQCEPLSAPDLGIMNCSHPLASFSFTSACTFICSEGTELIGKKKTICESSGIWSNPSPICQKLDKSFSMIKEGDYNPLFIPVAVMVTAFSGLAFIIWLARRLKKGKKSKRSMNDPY
assay: flow; stated as sub-nanomolar affinity
measurement-context: tags: endogenous, J.RT3-T3.5 human T-ALL line; label: 5' 6-FAM, Cy5 or biotin (hexaethylene glycol spacer)
reported-metric: Kd

binder="CD62LApt.88 (A1, L-SA.88) (ssDNA) DNA: ATCCAGAGTGACGCAGCATAGTCAAGGCGATAGACGAAAAACATTGTTTTCCTGGAAGGCCCAGAATCTGTGGACACGGTGGCTTAGT" reading="< 1 nM"
